Field IC50: reported value for Tyrosine-protein kinase JAK2 (Homo sapiens); entries drawn from several documents.

Below, 4 compounds whose answers are already recorded.
[[record]]
compound = "CCC(=O)c1cnc(Nc2cccc(CN3CCCC3)n2)cc1Nc1cccc(-c2ncn(C)n2)c1OC"
experimental_system = "Tyrosine-protein kinase JAK2 (Homo sapiens)"
reported_metric = "IC50"
reported = "≥ 500 nM"

[[record]]
compound = "C[C@@H]1CN(c2ccc(Nc3ncc4ccn(Cc5cccnc5N(C)S(C)(=O)=O)c4n3)cc2)CCN1"
experimental_system = "Tyrosine-protein kinase JAK2 (Homo sapiens)"
reported_metric = "IC50"
reported = "< 20 nM"

[[record]]
compound = "Cc1cc(Nc2ncnc(-c3ccc(O[C@H]4CCN(C(=O)[C@H](C)O)C[C@H]4F)c(C#N)c3)n2)ccc1C1CCN(C)CC1"
experimental_system = "Tyrosine-protein kinase JAK2 (Homo sapiens)"
reported_metric = "IC50"
reported = "324 nM"

[[record]]
compound = "NC(=O)c1cnc(Nc2ccc3c(c2)NCC(O)CO3)nc1NC1CC1 (centres unmarked)"
experimental_system = "Tyrosine-protein kinase JAK2 (Homo sapiens)"
reported_metric = "IC50"
reported = "10 to 100 nM"


Task: Form field: reported IC50 of CC[C@H](n1cc(-c2nc(-c3cnn(C[C@@H](O)CO)c3)cn3nccc23)cn1)C(C)(F)F
Output: 100 to 1000 nM

Task: Form field: reported IC50 of Nc1cc2ccc1-c1ccnc(n1)Nc1ccc(OCC3COC3)c(c1)COc1ccc(cc1)NC2=O
Output: 101 to 1000 nM

Task: Form field: reported IC50 of N#Cc1cc(-c2ncnc(Nc3ccc(N4CCN(C5COC5)CC4)c(C(F)(F)F)c3)n2)ccc1O[C@H]1CCN(C(=O)CO)C[C@H]1F
Output: 225 nM

----------
Field IC50: reported value for Tyrosine-protein kinase JAK2 (Homo sapiens, UniProt O60674); entries drawn from several documents.
Please reply with the bare figure in µM and do not write the unit itself.

[[record]]
record_smiles = "CNC(=O)c1n[nH]c2cc(-c3cc(F)c(O)cc3CC(F)(F)F)nc(NCc3cc(C)ccc3N(C)S(C)(=O)=O)c12"
experimental_system = "Tyrosine-protein kinase JAK2 (Homo sapiens, UniProt O60674)"
reported = 0.0369

[[record]]
record_smiles = "C[C@@H]1CN(c2ccc(Nc3ncnc(-c4ccc(O[C@H]5CCN(C(=O)[C@@H](C)O)CC5(F)F)c(C#N)c4)n3)cc2)CCN1C1COC1"
experimental_system = "Tyrosine-protein kinase JAK2 (Homo sapiens, UniProt O60674)"
reported = 0.187


Task: Form entry - test system: Tyrosine-protein kinase JAK2 (Homo sapiens, UniProt O60674); read-out: IC50; molecule: Cc1nn(C)cc1Nc1ncc(Cl)c(NC2CCN(c3ccc(C#N)cn3)CC2)n1
Output: 0.001

----------
pIC50: −log10 of the molar value.
Field pIC50: reported value for Tyrosine-protein kinase JAK2 (Homo sapiens); entries drawn from several documents.

Below, 2 compounds whose answers are already recorded.
[[record]]
compound = "O=C(NCC1CC1)c1noc2c1CN(c1ncnc3[nH]ccc13)CC2"
experimental_system = "Tyrosine-protein kinase JAK2 (Homo sapiens)"
reported = "6.30 to 7.00"

[[record]]
compound = "O=C1CCc2cc(Nc3ncc4ccn(S(=O)(=O)c5ccccc5OC(F)(F)F)c4n3)ccc2N1"
experimental_system = "Tyrosine-protein kinase JAK2 (Homo sapiens)"
reported = "> 7.70"


Task: Form entry - test system: Tyrosine-protein kinase JAK2 (Homo sapiens); read-out: pIC50; compound: N#CCC1(n2cc(-c3nc(-c4cnn(C5CCC5)c4)cc4nccn34)cn2)CN(CC(F)(F)F)C1
Output: 7.00 to 8.00

Task: Form entry - test system: Tyrosine-protein kinase JAK2 (Homo sapiens); read-out: pIC50; compound: CN(CCCO)Cc1cc(C(=O)N2CCC(N3CC(CC#N)(n4cc(-c5ncnc6[nH]ccc56)cn4)C3)CC2)nc(C(F)(F)F)n1
Output: 7.00 to 7.30

Task: Form entry - test system: Tyrosine-protein kinase JAK2 (Homo sapiens); read-out: pIC50; compound: C[C@H](O)C(=O)N1CC[C@H](Oc2ccc(-c3ncnc(Nc4ccc(N5CC6COCC6C5)cc4)n3)cc2C#N)[C@H](F)C1 (stereo partly shown)
Output: ≤ 6.00

----------
Field IC50: reported value for Tyrosine-protein kinase JAK2 (Homo sapiens, UniProt O60674); entries drawn from several documents.

Below, 6 compounds whose answers are already recorded.
[[record]]
compound = "Cc1c(Nc2ccc[nH]c2=O)nc(N[C@@H]2CCCN(C(=O)CC#N)C2)nc1N1CCOCC1"
reported = "< 100 nM"

[[record]]
compound = "O=C(CO)Nc1cccc(-c2cnc3ccccc3n2)c1"
reported = "> 10000 nM"

[[record]]
compound = "Cc1cc(CNC(=O)c2ccc(Nc3nccc(-c4cnn(C5(CC#N)CC(C#N)C5)c4)n3)cc2)no1 (single isomer, unassigned)"
reported = "< 100 nM"

[[record]]
compound = "C[C@@H](NC(=O)c1ccc(N2CC(CC#N)(n3cc(-c4ncnc5[nH]ccc45)cn3)C2)c(F)c1)C1CC1"
reported = "≤ 10 nM"

[[record]]
compound = "C[C@H](O)C(=O)N1CCC(Oc2cc(C#N)cc(-c3ncnc(Nc4ccc(N5CCN(C6COC6)CC5)cc4)n3)c2)CC1"
reported = "371 nM"

[[record]]
compound = "CCOC(=O)Cn1cc(Nc2ncc3ccn(C[C@H]4CC[C@H](N)CC4)c3n2)cn1"
reported = "< 100 nM"


In the following, a different compound is considered.
Task: Form entry - test system: Tyrosine-protein kinase JAK2 (Homo sapiens, UniProt O60674); read-out: IC50; compound: Cc1c(Cl)cccc1OC[C@H](O)CNc1cc[nH]c(=O)c1-c1nc2cc3c(cc2[nH]1)C(=O)N(CC1CCN(CCO)CC1)C3=O
Output: 500 to 5000 nM

----------
pIC50: −log10 of the molar value.
Field pIC50: reported value for UniProt O60674; entries drawn from several documents.

Below, 5 compounds whose answers are already recorded.
[[record]]
compound = "CC(=O)Nc1cc(Oc2ccc3nc(Nc4ccc(F)cc4F)n4c3c2CCC4)ccn1"
reported = 5.74

[[record]]
compound = "Cc1cn(-c2cc3nccn3c(-c3cnn(C(CC#N)C4CC4)c3)n2)cn1 (stereo not drawn)"
reported = "6.00 to 7.00"

[[record]]
compound = "CCc1cc(O)ccc1-c1cc2[nH]ncc2c(N2CCC(S(=O)(=O)N(C)C)C2)n1 (racemic)"
reported = 7.63

[[record]]
compound = "N#CCC1(n2ccc(-c3ncnc4[nH]ccc34)c2)CN(C2CCN(C(=O)c3ccc(O)c(C(F)(F)F)c3)CC2)C1"
reported = "7.30 to 8.00"

[[record]]
compound = "N#CCC(=O)N1CCC[C@@H](Nc2c(C#N)cnc3[nH]ccc23)C1"
reported = "7.00 to 8.00"


Task: Form field: reported pIC50 of CN1CCN(c2ccc3cc2COC/C=C/COCc2cccc(c2)-c2ccnc(n2)N3)CC1
Output: ≥ 6.00

Task: Form field: reported pIC50 of N#CCC1(n2cc(-c3nc(-c4cnn(C5COC5)c4)cc4nccn34)cn2)CN(CC(F)F)C1
Output: 7.00 to 8.00

Task: Form field: reported pIC50 of CC(=O)N1CCN(c2ccc(Nc3ncnc(-c4ccc(OC5CCOCC5)c(C#N)c4)n3)cc2)CC1
Output: 6.65

Task: Form field: reported pIC50 of CN(c1ncnc2[nH]ccc12)C1CC2(C1)CN(C(=O)c1ccc(Cl)cc1)C2
Output: 5.00 to 6.00

Task: Form field: reported pIC50 of N#CCC(CC1CCN(C(=O)c2ccc(F)cc2F)CC1)n1cc(-c2ccnc(Nc3ccc(Oc4ccccc4)cc3)n2)cn1 (racemic)
Output: > 7.00

Task: Form field: reported pIC50 of N#CCC1(n2ccc(-c3ncnc4[nH]ccc34)c2)CN(C2CCN(C(=O)Nc3ncccc3F)CC2)C1
Output: 7.30 to 8.00

Task: Form field: reported pIC50 of CN1CCC(Cc2ccc(Nc3ncc4c(n3)N(c3cccc(S(=O)(=O)NC(C)(C)C)c3)CC4)cc2)CC1
Output: 9.05

Task: Form field: reported pIC50 of CC[C@H](Cn1ccc2cnc(Nc3cnn(CC(=O)OCC4COC4)c3)nc21)C(C)C
Output: > 7.00

Task: Form field: reported pIC50 of O=C(Nc1nc2ccc(-c3ccc4c(c3)CN(C(=O)Nc3ccc(F)cc3F)C4)nc2s1)C1CC1
Output: < 5.00

Task: Form field: reported pIC50 of Cc1nn(C)cc1S(=O)(=O)N1CC(CCF)(n2cc(-c3nc(-c4cnn(C)c4)cc4nccn34)cn2)C1
Output: 6.00 to 7.00

----------
pIC50: −log10 of the molar value.
Field pIC50: reported value for Tyrosine-protein kinase JAK2 (Homo sapiens); entries drawn from several documents.

Below, 8 molecules whose answers are already recorded.
[[record]]
molecule = "Cn1cc(-c2cc3nccn3c(-c3cnn(C4(CC#N)CN(CC5CC5)C4)c3)n2)cn1"
reported_metric = "pIC50"
reported = "7.00 to 8.00"

[[record]]
molecule = "CCS(=O)(=O)N1CC(CC#N)(n2cc(-c3nc(Nc4ccc5[nH]cnc5c4)nc4ccsc34)cn2)C1"
reported_metric = "pIC50"
reported = "> 7.30"

[[record]]
molecule = "Cc1c(Cl)cccc1OC[C@H](O)CNc1cc[nH]c(=O)c1-c1nc2cc3c(cc2[nH]1)C(=O)N(C1CCN(C)CC1)C3=O"
reported_metric = "pIC50"
reported = "5.30 to 6.30"

[[record]]
molecule = "O=C(NCCC(F)(F)F)c1noc2c1CN(c1ncnc3[nH]ncc13)CC2"
reported_metric = "pIC50"
reported = "< 5.70"

[[record]]
molecule = "C[C@H](O)CN1C(=O)c2cc3nc(-c4c(NC[C@@H](O)c5cccc(Cl)c5)cc[nH]c4=O)[nH]c3cc2C1=O"
reported_metric = "pIC50"
reported = "4.82 to 5.30"

[[record]]
molecule = "C[C@@H](O)c1nc2cnc3ccoc3c2n1[C@H]1CC[C@H](CC#N)OC1"
reported_metric = "pIC50"
reported = "6.00 to 7.00"

[[record]]
molecule = "N#Cc1cc(-c2ncnc(Nc3ccc(N4CCN(C5COC5)CC4)cc3)n2)ccc1O[C@H]1CCN(C(=O)c2nnc[nH]2)CC1(F)F"
reported_metric = "pIC50"
reported = 7.28

[[record]]
molecule = "N#Cc1cc(-c2ncnc(Nc3ccc(N4CCN(C5COC5)CC4)cc3)n2)ccc1O[C@H]1CCN(C(=O)c2ccnnc2)C[C@H]1F"
reported_metric = "pIC50"
reported = 6.88


Task: Form field: reported pIC50 of CCC(=O)c1cnc(Nc2cc(CN3CCCCC3)ccn2)cc1Nc1cccc(-c2ncn(C)n2)c1OC
Output: ≤ 6.30

Task: Form field: reported pIC50 of Cc1cnc(Nc2ccc3c(c2)CN(C)C3)nc1N1CC(CC#N)(N2CCC(CCF)CC2)C1
Output: > 7.30

Task: Form field: reported pIC50 of N#CCC1(n2cc(-c3ncnc4[nH]ccc34)cn2)CN(C2CCN(S(=O)(=O)C3CC3)CC2)C1
Output: 7.30 to 8.00

Task: Form field: reported pIC50 of Cn1cc(-c2cc3nccn3c(-c3cnn(C4(CC#N)CC5(CCOCC5)C4)c3)n2)cn1
Output: 7.00 to 8.00
